biological target: HIV Env of isolate BJOX025000.01.1 (clade AE) (HIV); test: cell-based or functional assay
readout-label: IC80 (µg/ml) with constrains (µg/mL)
Just the number in µg/mL, nothing appended.

Task: Please look up its IC80 (µg/ml) with constrains: ePGDM5 (antibody, V domains shown) VH: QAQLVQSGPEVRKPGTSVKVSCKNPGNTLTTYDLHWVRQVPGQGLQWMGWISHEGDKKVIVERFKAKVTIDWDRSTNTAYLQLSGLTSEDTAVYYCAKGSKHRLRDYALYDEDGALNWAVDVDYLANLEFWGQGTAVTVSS VL: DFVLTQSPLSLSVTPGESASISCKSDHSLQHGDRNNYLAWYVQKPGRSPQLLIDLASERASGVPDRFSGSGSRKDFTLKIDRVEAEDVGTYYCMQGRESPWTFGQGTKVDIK
Result: 0.072
